- protocol: AP1 Signaling Pathway (AID 357);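 note: ME-180 reporter cells stimulated with EGF at its EC50 level; % is set by controls: 0 for no effect and ±100 for the full control effect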
- assayContext: ME-180 (cervical carcinoma) AP-1-bla reporter, EGF-induced, beta-lactamase ratio, 5 h; at 7.69 µM (top of the series) unless noted
Records with an inconclusive call do not appear.
For each entry below, report its activity change, negative = inhibition value.
Give bare numbers, in %.

Recorded activity change, negative = inhibition, per entry:
COc1cccc(-c2cncnc2Nc2ccc(F)cc2)c1 ... -13.2
COC(=O)N1CCC[C@@]2(CCN(C(=O)Nc3cccc(F)c3)C2)C1 ... -17.4
COc1cccc(Cn2c(=O)c(C)nc3cnc(N4CCN(C)CC4)nc32)c1 ... -0.444
CN(Cc1ccco1)c1cc(-c2ccoc2)ncn1 ... -1.97
Cc1ccccc1-c1nc(N2CCNCC2)c2ccccc2n1 ... 12.7

Please report activity change, negative = inhibition for every entry that follows.
1. COc1ncc2ncc(=O)n(Cc3cccs3)c2n1
2. COCCn1c(=O)c(-c2cccc(C#N)c2)nc2cnc(N(C)C)nc21
3. CS(=O)(=O)N1CCC2(CCN(c3ccccc3)CC2)CC1
4. Cc1noc(C)c1-c1cncnc1NCCN1CCOCC1
5. Cc1nc2cnc(N3CCOCC3)nc2n(C)c1=O
6. COc1ccc(-n2c(=O)c(C)nc3cnc(OC)nc32)cc1
7. Cc1noc(C)c1-c1cc(NCCN2CCOCC2)ncn1
8. Cc1ccccc1-c1cc(N(C)C)ncn1

Output line:
1. 1.19
2. -1.01
3. 0.201
4. 4.2
5. -9.18
6. 13.3
7. 27.9
8. -2.87

Input line: What value of measured activity change, negative = inhibition is listed for "COC(=O)N1CCC2(CC1)CN(C(=O)Nc1cccc(C#N)c1)C2" ?
Output line: 2.52
